- Tested on: Rattus norvegicus
- measurement-protocol: Tested for minimum effective dose required to cause motor in coordination in Geller-Seifter model in CFY rats (route of administration is peroral 30 min before testing)
- Format: functional
- condition-set: po, read-out: MED
attribute-measured: log10(minimal effective dose) (log10 of the value in mg/kg)
The figures below represent log10 of minimal effective dose, where minimal effective dose is stated in mg/kg.

Input: Name the recorded log10(minimal effective dose) of the item `CCCOC(=O)c1c(C)nc2c(c1N)c1ccccc1n2C` in your answer.
Output: 1.00

Input: Name the recorded log10(minimal effective dose) of the item `COC(=O)c1c(C)nc2c(c1N)c1cc(Cl)ccc1n2C` in your answer.
Output: 1.70

Input: Name the recorded log10(minimal effective dose) of the item `CNc1c(C(=O)OC)c(C)nc2c1c1ccccc1n2C` in your answer.
Output: 1.30

Input: Name the recorded log10(minimal effective dose) of the item CN1C(=O)CN=C(c2ccccc2)c2cc(Cl)ccc21 [DIAZEPAM] in your answer.
Output: 0.40

Input: Name the recorded log10(minimal effective dose) of the item `COC(=O)c1c(C)[nH]c2nc3ccccc3c-2c1N` in your answer.
Output: 0.70
